Quick reference: z-score of the listed items.
- assay-notes: fission yeast growth modulation, primary screen, strain 972, OD600, 24 h, no modulator (AID 1090);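 note: basal condition with compound alone and no growth modifier present; test concentration not given here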
- condition-set: S. pombe 972 growth, higher = more signal, called active from +8 up or from −8 down
Activity calls are given as the source filed them.
measure-name: z-score

molecule	result
CC(C)CN1CCc2nc(-c3ccccc3)c3c(c2C1)CO[C@@H](C)C3	0.218 (inactive)
C=CC[C@@H]1C=C[C@H](ON=C[C@@H](NS(=O)(=O)c2ccc(C)cc2)[C@H](C)C=CCC(=O)OC)[C@@H](CO)O1	0.757 (inactive)
CCC1=NOC(CCC2CC(OC(=O)NCc3cccc4c3OCO4)CC3(CCCC(COC(=O)NCCc4ccc(Cl)cc4)O3)O2)C1 (configuration not stated)	0.232 (inactive)
CCOC(=O)[C@H](Cc1ccccc1)NC(=O)CCC1CC(OC(=O)NCc2cccc3ccccc23)CC2(CCCC(COC(=O)NCCc3ccccc3OC)O2)O1 (some centres not stated)	0.503 (inactive)
CCOC(=O)[C@H](Cc1ccccc1)NC(=O)CCC1CC(OC(=O)NCCc2ccc(F)cc2)CC2(CCCC(COC(=O)NCc3cccc(C(F)(F)F)c3)O2)O1 (some centres not stated)	0.106 (inactive)
O=C1[C@H]2CCn3c(=O)n(Cc4cc5c(cc4Cl)OCO5)c(=O)n3[C@H]2[C@H](O)[C@@H]2O[C@H]12	-0.315 (inactive)
CCOC(=O)[C@H](CC(C)C)NC(=O)CCC1CC(OC(=O)NCc2ccc3c(c2)OCO3)CC2(CCCC(COC(=O)NCCc3ccccc3OC)O2)O1 (some centres not stated)	0.249 (inactive)

###

Quick reference: composite z-score of the listed items.
- System: Sonic hedgehog protein (Shh)
- assay-notes: small-molecule binders of Shh protein, primary screen, biochemical, small-molecule microarray, 635/667 nm fluorescence (AID 1151);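 note: Shh protein binding to compounds spotted on small-molecule microarray slides; score combines spot fluorescence intensity with signal-to-noise across triplicate slides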
- condition-set: small-molecule microarray binding, 635 nm fluorescence; higher = more signal
measure-name: composite z-score

molecule	result
CO[C@@H]1COC(=O)[C@@H]2CCCN2C(=O)[C@@H](C)COC(=O)CCC[C@H]1C	1.18
COc1ccc(COC(=O)NN=C2C[C@@H](O)[C@@H](O)[C@@H]3[C@@H]4C(=O)N(C[C@@H]5CCCO5)C(=O)[C@@H]4CC[C@@H]23)cc1	0.0407
O=C1C[C@@H](O)[C@@H](O)[C@@H]2[C@@H]3C(=O)N(Cc4ccccc4)C(=O)[C@@H]3CC[C@H]12	0.718
C#CCCCON=C1C[C@@H](O)[C@@H](O)[C@@H]2[C@@H]3C(=O)N([C@@H](C)c4ccccc4)C(=O)[C@@H]3CC[C@@H]12	0.0938
CC(C)CON=C1[C@H]2CCn3c(=O)n(C)c(=O)n3[C@H]2[C@H](O)[C@@H]2O[C@H]12	0.637
CCOC(=O)[C@H](CC(C)C)NC(=O)CCC1CC(OC(=O)NCc2ccc3c(c2)OCO3)CC2(CCCC(COC(=O)NCCOC)O2)O1 (stereo not given in full)	1.46
O=C1CCCC=C1C(O)COCc1ccccc1 (stereo not given)	0.124
C[C@]12CCC3c4ccc(OCC5CO5)cc4CCC3C1CC[C@@H]2O (stereo not given in full)	-0.0357
CC(C)=NOC[C@@H](O)[C@H]1O[C@@H]2OC(C)(C)O[C@@H]2[C@H]1O	0.785
CC(C)(C)N1C(=O)[C@H]2[C@H]3[C@H](O)[C@H](O)CC(=NOC[C@@H](O)COCc4ccco4)[C@@H]3CC[C@H]2C1=O	-0.633
CC(=O)OC[C@H]1O[C@@H](ON=C(C)CCC(=O)OC[C@H]2O[C@H](C#Cc3ccccc3)C=C[C@@H]2Oc2ccc(C)cc2)[C@H](OC(C)=O)[C@@H](OC(C)=O)[C@@H]1OC(C)=O	1.19
CC(CCN1CCc2nc(-c3ccccc3)c(-c3ccccc3)cc2C1)=NOC(C)CN1CCCc2nc(C)c(C)cc21 (stereo not given)	0.667
O=C1[C@H]2[C@H]3[C@H](O)[C@H](O)CC(=NOCc4ccccc4)[C@H]3CC[C@H]2C(=O)N1C1CCCCC1	0.449
CC(=O)OC[C@H]1O[C@H](CC=NO[C@H](C)c2cn([C@@H]3COC[C@H]3O)nn2)C=C[C@@H]1OC(C)=O	0.165
O=C1[C@H]2[C@H]3[C@H](O)[C@H](O)CC(=NO[C@@H]4O[C@H](CO)[C@@H](O)[C@H](O)[C@H]4O)[C@@H]3CC[C@H]2C(=O)N1C1CCCCC1	0.635

###

- tgt: Concanavalin-A (Canavalia ensiformis) (UniProt P02866)
- Sequence (P02866 whole entry, looked up): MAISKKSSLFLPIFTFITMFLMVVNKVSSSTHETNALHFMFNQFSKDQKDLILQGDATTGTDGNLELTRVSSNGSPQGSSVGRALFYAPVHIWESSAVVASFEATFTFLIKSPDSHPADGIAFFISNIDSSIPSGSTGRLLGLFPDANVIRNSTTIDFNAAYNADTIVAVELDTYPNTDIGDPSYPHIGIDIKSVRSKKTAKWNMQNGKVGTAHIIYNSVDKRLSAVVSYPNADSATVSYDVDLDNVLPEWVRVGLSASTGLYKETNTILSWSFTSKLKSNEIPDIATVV
- assay-notes: ConA small-molecule binders, primary screen, artefact control for SMM control protein annotation, biochemical, small-molecule microarray, Alexa647 label, 635 nm (AID 1127);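 note: z combines 667 nm emission intensity with signal-to-noise across three replicate slides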
- condition-set: ConA-A647 binding fluorescence, higher = more signal
Quick reference: composite z-score of the listed items.
measure-name: composite z-score

molecule	number
CO[C@@H](C(C)C)[C@@H](C)C1OC(=O)CC1O (stereo partly drawn)	-0.347
COc1cccc([C@H]2Oc3ccc(OC)cc3C(=NOCC[C@@H]3C=C[C@H](OC(C)=O)[C@@H](COC(C)=O)O3)[C@@H]2O)c1	0.794
CCOC(=O)CCN1C(=O)[C@H]2[C@H]3[C@H](O)[C@H](O)CC(=O)[C@@H]3CC[C@H]2C1=O	0.729
C[C@@H]1CC[C@H]2C(=O)O[C@@H](CN=[N+]=[N-])CN2[C@H]1c1ccc(Br)cc1	1.07
COC(=O)[C@H](C)NC(=O)CCC1CC(OC(=O)NCCc2ccc(F)cc2)CC2(CCCC(COC(=O)NCc3ccccc3)O2)O1 (stereo partly drawn)	0.619
CCOC(=O)[C@H](CC(C)C)NC(=O)CCC1CC(OC(=O)NCCc2ccc(F)cc2)CC2(CCCC(COC(=O)NCCCN3CCCC3=O)O2)O1 (stereo partly drawn)	0.0423
COc1ccc(O[C@H]2C=C[C@@H](C#Cc3ccccc3)O[C@@H]2CO)cc1	0.869
C=CC[C@@H]1C=C[C@H](ON=C[C@@H](NS(=O)(=O)c2ccc(C)cc2)[C@H](C)C=CCC(=O)OC)[C@@H](CO)O1	-1.58

###

- assay-notes: HepG2 liver cancer cell viability effects, profiling panel, resazurin fluorescence, 24 h, PK04 Diversity Set (AID 1172); note: test concentration not given here
- condition-set: higher = more signal
Binned z-score; ranges: bottom range = under -0.3, center range = from -0.3 up to 0.4, top range = 0.4 and over

compound	cat
O=C1C2=CC[C@H]3C(=O)N(c4ccc(F)cc4F)C(=O)[C@H]3[C@H]2[C@H](O)[C@@H]2O[C@H]12	center range
CC(C)(C)N1C(=O)[C@H]2[C@H]3[C@H](O)[C@H](O)CC(=NOC[C@@H](O)COCc4ccco4)[C@@H]3CC[C@H]2C1=O	center range
CO[C@H]1COC(=O)CCC[C@H](C)[C@H](OC)COC(=O)CC=C[C@@H]1C	top range
O=C(NCCC[N+]1=CC=NC1c1ccccc1)N1CCCc2nc(-c3ccc(Br)cc3)ccc21 (stereo not given)	center range
CO[C@@H]1COC(=O)[C@H](CCSC)NC(=O)CC=C[C@@H](C)COC(=O)[C@@H]2CCCN2C(=O)CC=C[C@H]1C	top range
CC(C)[C@@H](OCc1ccccc1)[C@H](C)CON=C1[C@H]2CCn3c(=O)n(-c4ccccc4)c(=O)n3[C@H]2[C@H](O)[C@@H]2O[C@H]12	bottom range
O=C1C2=CC[C@H]3C(=O)N(C4CCCCC4)C(=O)[C@H]3[C@H]2[C@H](O)[C@@H]2O[C@H]12	bottom range
CC(CCN1CCCCc2nc(C)c(C)cc21)=NO[C@@H](C)c1cc(-c2c(C)cc(C)cc2C)no1	top range
C[C@@H]1C=CCC(=O)OC[C@H](C)C(=O)N[C@@H](Cc2ccccc2)C(=O)OC1	bottom range
COC(=O)[C@@H]1CC[C@H](C)[C@@H](c2ccc(C)cc2)N1C(=O)c1ccc(C=NOC[C@@H](O)[C@H]2O[C@@H]3OC(C)(C)O[C@@H]3[C@H]2O)cc1	center range
CC1(C)O[C@H]2OC([C@H](O)CON3C(=O)c4ccccc4C3=O)[C@H](O)[C@H]2O1 (stereo not given in full)	center range
C=CCOCC1CN2[C@@H](CC[C@@H](C)[C@@H]2c2ccc(Br)cc2)C(=O)O1 (stereo not given in full)	top range
CC(=O)OC[C@H]1O[C@H](CC=NO[C@@H](C)c2cc(-c3c(C)cc(C)cc3C)no2)C=C[C@@H]1OC(C)=O	bottom range
CO[C@H]1COC(=O)CCC[C@H](C)[C@@H](OC)COC(=O)CC=C[C@@H]1C	center range

###

- assay-notes: binders of probe aFGF10 on microarray, primary screen, stem cell growth factor project, biochemical, small-molecule microarray, fluorescence 635/667 (AID 1071);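 note: score merges 667 nm spot intensity and signal to noise from triplicate slides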
- condition-set: higher = more signal
Quick reference: composite z-score of the listed items.

molecule	composite z-score
COC(=O)[C@H](C)NC(=O)CCC1CC(OC(=O)NCc2cccc3ccccc23)CC2(CCCC(COC(=O)NCCOc3ccccc3)O2)O1 (some centres not stated)	0.15
CC(CCN1CCc2nc(-c3ccccc3)c(-c3ccccc3)cc2C1)=NOC(C)CN1CCCc2nc(C)c(C)cc21 (configuration not stated)	0.681
CO[C@H]1COC(=O)CC=C[C@@H](C)COC(=O)[C@H]2CCCN2C(=O)CC=C[C@H]1C	-0.103
CC(CCC(=O)OC[C@H]1O[C@H](C#Cc2ccccc2)C=C[C@@H]1Oc1ccc(C)cc1)=NOC(C)CN1CCCc2nc(C)c(C)cc21 (some centres not stated)	0.413
C#CCCCON=C1C[C@@H](O)[C@@H](O)[C@@H]2[C@@H]3C(=O)N(C[C@@H]4CCCO4)C(=O)[C@@H]3CC[C@@H]12	0.691
O=C(NCCC[N+]1=CC=NC1c1ccccc1)N1CCCc2nc(-c3ccc(Br)cc3)ccc21 (configuration not stated)	0.345
COc1ccc(COC(=O)NN=C2C[C@@H](O)[C@@H](O)[C@@H]3[C@@H]4C(=O)N(C(C)(C)C)C(=O)[C@@H]4CC[C@@H]23)cc1	0.568

Provenance of the data: PubChem BioAssay
